- TARGET_UNDER_TEST: endogenous CGRP receptor (Homo sapiens, UniProt O60894+Q16602)
- Sequence (Q16602 23-461): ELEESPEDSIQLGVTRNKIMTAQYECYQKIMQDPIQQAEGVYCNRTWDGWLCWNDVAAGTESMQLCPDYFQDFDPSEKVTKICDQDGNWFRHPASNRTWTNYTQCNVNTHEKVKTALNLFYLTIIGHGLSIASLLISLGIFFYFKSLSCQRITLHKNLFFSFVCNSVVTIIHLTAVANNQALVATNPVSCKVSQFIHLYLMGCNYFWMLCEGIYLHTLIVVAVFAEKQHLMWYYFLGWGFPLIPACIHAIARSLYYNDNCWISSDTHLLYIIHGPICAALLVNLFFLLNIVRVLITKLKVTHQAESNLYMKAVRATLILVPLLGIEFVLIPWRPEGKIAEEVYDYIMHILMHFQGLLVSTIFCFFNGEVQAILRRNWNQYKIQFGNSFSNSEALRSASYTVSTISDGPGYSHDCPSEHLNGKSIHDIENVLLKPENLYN
- Sequence (O60894 27-148): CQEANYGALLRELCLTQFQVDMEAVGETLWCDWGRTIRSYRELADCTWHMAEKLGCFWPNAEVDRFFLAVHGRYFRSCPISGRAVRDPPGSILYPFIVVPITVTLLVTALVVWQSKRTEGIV
- ASSAY_METHOD_TEXT: CGRP functional antagonism using SK-N-MC-BLA (4C10), β-lactamase transcriptional reporter assay
- EXPERIMENTAL_PARAMETERS: SK-N-MC (4C10) cells, inhibition of β-lactamase expression in the presence of 200 pM CGRP

# COMPOUND, IC50
data = [
    ("CC(C)CN1C(=O)[C@H](CC(=O)N2CCC(n3c(=O)[nH]c4ncccc43)CC2)S[C@@H]1c1cccc(F)c1N1CCN(C(C)(C)C)CC1", "< 1 µM"),
    ("O=C(CC1SC(c2ccccc2F)N(CC2CCCCC2)C1=O)N1CCC(N2Cc3ccccc3NC2=O)CC1 (stereo not drawn)", "< 1 µM"),
    ("CN(C)C1CCN(c2ccccc2C2SC(CC(=O)N3CCC(n4c(=O)[nH]c5ncccc54)CC3)C(=O)N2CCC(C)(C)C)CC1 (stereo not drawn)", "> 5 µM"),
    ("CC(C)N1CCN(c2cccc(Cl)c2C2S[C@@H](CC(=O)N3CCC(n4c(=O)[nH]c5ncccc54)CC3)C(=O)N2CCC(C)(C)C)CC1 (stereo partly drawn)", "< 1 µM"),
    ("CC(C)(C)CCN1C(=O)C(CC(=O)N2CCC(N3CCc4ccccc4NC3=O)CC2)SC12c1ccccc1-c1ccccc12 (stereo not drawn)", "< 1 µM"),
    ("CC(C)CCN1C(=O)C(CC(=O)N2CCC(N3Cc4ccccc4NC3=O)CC2)SC1C(C)c1ccccc1 (stereo not drawn)", "> 5 µM"),
    ("CCCCN1C(=O)[C@H](CC(=O)N2CCC(N3CCc4ccccc4NC3=O)CC2)SC1c1cccc(F)c1N1CCN(C(C)(C)C)CC1 (stereo partly drawn) [Compound 522]", "< 1 µM"),
    ("CC(C)N1CCN(c2c(F)cccc2C2SC(CC(=O)N3CCC(n4cc(-c5ccccc5)[nH]c4=O)CC3)C(=O)N2CCC(C)(C)C)CC1 (stereo not drawn)", "1 to 5 µM"),
    ("CCCCN1C(=O)C(CC(=O)N2CCC(N3Cc4ccccc4NC3=O)CC2)SC1c1ccccc1 (stereo not drawn)", "< 1 µM"),
    ("CC(C)(C)CCN1C(=O)C(CC(=O)N2CCC(n3c(=O)[nH]c4ccccc43)CC2)SC1c1ccccc1-n1ccnc1 (stereo not drawn)", "< 1 µM"),
    ("CC(C)CCN1C(=O)C(CC(=O)N2CCC(N3CCc4ccccc4NC3=O)CC2)SC1C1CCOCC1 (stereo not drawn)", "1 to 5 µM"),
    ("CC(C)CCN1C(=O)C(CC(=O)N2CCC(N3CCc4ccccc4NC3=O)CC2)SC1c1ccccc1-n1cccn1 (stereo not drawn)", "< 1 µM"),
]

====

- TARGET_UNDER_TEST: endogenous CGRP receptor (Homo sapiens, UniProt O60894+Q16602)
- ASSAY_METHOD_TEXT: CGRP functional antagonism using SK-N-MC-BLA (4C10), β-lactamase transcriptional reporter assay
- EXPERIMENTAL_PARAMETERS: SK-N-MC (4C10) cells, inhibition of β-lactamase expression in the presence of 200 pM CGRP
pIC50: −log10 of the molar value.
QUANTITY_NAME: pIC50

# COMPOUND, RESULT
measured = [
    ("CC(C)(C)CCN1C(=O)[C@H](CC(=O)N2CCC(N3CCc4ccccc4NC3=O)CC2)SC1c1cccc(F)c1N1CCC(O)C1 (stereo partly drawn)", "5.30 to 6.00"),
    ("CC(C)CCN1C(=O)C(C(C)C(=O)N2CCC(N3Cc4ccccc4NC3=O)CC2)SC1c1ccccc1 (stereo not drawn)", "> 6.00"),
    ("CC(C)CCN1C(=O)C(CC(=O)N2CCC(N3Cc4ccccc4NC3=O)CC2)SC1C1CCCC1 (stereo not drawn)", "> 6.00"),
    ("CC(C)CN1C(=O)[C@H](CC(=O)N2CCC(n3c(=O)[nH]c4ncccc43)CC2)S[C@H]1c1cccc(F)c1N1CCN(C(C)(C)C)CC1", "> 6.00"),
    ("CC(C)N1CCN(c2c(F)cccc2C2SC(CC(=O)N3CCC(N4CCc5ccccc5NC4=O)CC3)C(=O)N2CCC(C)(C)C)CC1 (stereo not drawn)", "< 5.30"),
    ("CC(C)(C)N1CCN(c2c(F)cccc2C2S[C@@H](CC(=O)N3CCC(n4c(=O)[nH]c5ncccc54)CC3)C(=O)N2CC2CCOCC2)CC1 (stereo partly drawn)", "> 6.00"),
]

====

- TARGET_UNDER_TEST: endogenous CGRP receptor (Homo sapiens, UniProt O60894+Q16602)
- ASSAY_METHOD_TEXT: CGRP functional antagonism using SK-N-MC-BLA (4C10), β-lactamase transcriptional reporter assay
- EXPERIMENTAL_PARAMETERS: SK-N-MC (4C10) cells, inhibition of β-lactamase expression in the presence of 200 pM CGRP
pIC50: −log10 of the molar value.
Parameter pIC50: see the listing below.
QUANTITY_NAME: pIC50

# COMPOUND, RESULT
data = [
    ("CC(C)(C)CCN1C(=O)[C@H](CC(=O)N2CCC(N3CCc4ccccc4NC3=O)CC2)SC1c1cccc(F)c1N1CC[C@H](O)C1 (some centres unmarked) [Compound 486]", "> 6.00"),
    ("COCCN1C(=O)[C@H](CC(=O)N2CCC(N3CCc4ccccc4NC3=O)CC2)SC1c1cccc(F)c1N1CCN(C(C)(C)C)CC1 (some centres unmarked) [Compound 534]", "> 6.00"),
    ("Cc1cc(C2SC(CC(=O)N3CCC(N4CCc5ccccc5NC4=O)CC3)C(=O)N2CCC(C)(C)C)cc2cn[nH]c12 (centres unmarked)", "> 6.00"),
    ("CC(C)CCN1C(=O)C(CC(=O)N2CCC(N3Cc4ccccc4NC3=O)CC2)SC12CCC(C(F)(F)F)CC2 (centres unmarked)", "5.30 to 6.00"),
    ("CC(C)(C)CCN1C(=O)C(CC(=O)N2CCC(N3CCc4ccccc4NC3=O)CC2)SC1c1ncc[nH]1 (centres unmarked)", "< 5.30"),
    ("CCCN1C(=O)[C@H](CC(=O)N2CCC(n3c(=O)[nH]c4ncccc43)CC2)SC1c1cccc(F)c1N1CCN(C(C)(C)C)CC1 (some centres unmarked)", "> 6.00"),
    ("CC(C)CCN1C(=O)C(CC(=O)N2CCC(N3CCc4ccccc4NC3=O)CC2)SC1c1ccccc1N1CCC(O)CC1 (centres unmarked)", "> 6.00"),
    ("CN1CCN(c2ccccc2[C@H]2SC(CC(=O)N3CCC(n4c(=O)[nH]c5ncccc54)CC3)C(=O)N2CCC(C)(C)C)CC1 (some centres unmarked)", "> 6.00"),
    ("CC(C)(C)CCN1C(=O)[C@H](CC(=O)N2CCC(n3c(=O)[nH]c4ncccc43)CC2)S[C@H]1c1cccc(F)c1N1CCC(O)C1 (some centres unmarked) [Compound 468]", "> 6.00"),
    ("CC(C)(C)CCN1C(=O)C(CC(=O)N2CCC(N3CCc4ccccc4NC3=O)CC2)SC1c1c[nH]cn1 (centres unmarked)", "> 6.00"),
    ("COC(=O)[C@@H](CC(C)C)N1C(=O)C(CC(=O)N2CCC(N3Cc4ccccc4NC3=O)CC2)SC1c1ccccc1 (some centres unmarked)", "5.30 to 6.00"),
    ("CN1CCN(c2cc(F)ccc2C2SC(CC(=O)N3CCC(N4CCc5ccccc5NC4=O)CC3)C(=O)N2CCC(C)(C)C)CC1 (centres unmarked)", "5.30 to 6.00"),
    ("CN1CCC(N2CCN(c3ccccc3C3SC(CC(=O)N4CCC(n5c(=O)[nH]c6ncccc65)CC4)C(=O)N3CCC(C)(C)C)CC2)CC1 (centres unmarked)", "< 5.30"),
    ("CCOCCCN1C(=O)C(CC(=O)N2CCC(N3Cc4ccccc4NC3=O)CC2)SC1c1ccccc1 (centres unmarked)", "> 6.00"),
    ("CC(C)CCN1C(=O)C(CC(=O)N2CCC(N3Cc4ccccc4NC3=O)CC2)SC1c1ccc(Cl)cc1 (centres unmarked)", "5.30 to 6.00"),
    ("CC(C)CCN1C(=O)C(CC(=O)N2CCC(N3Cc4ccccc4NC3=O)CC2)SC1c1ccccc1Br (centres unmarked)", "> 6.00"),
    ("CC(C)CCN1C(=O)C(CC(=O)N2CCC(N3Cc4ccccc4NC3=O)CC2)S(=O)(=O)C1c1ccc(F)cc1F (centres unmarked)", "5.30 to 6.00"),
]

====

- TARGET_UNDER_TEST: endogenous CGRP receptor (Homo sapiens, UniProt O60894+Q16602)
- ASSAY_METHOD_TEXT: CGRP functional antagonism using SK-N-MC-BLA (4C10), β-lactamase transcriptional reporter assay
- EXPERIMENTAL_PARAMETERS: SK-N-MC (4C10) cells, inhibition of β-lactamase expression in the presence of 200 pM CGRP
- Protocol: Measuring CGRP Functional Antagonism Using SK-N-MC-BLA (4C10): CGRP functional antagonism was characterized in a cell based transcriptional assay using a recombinant SK-N-MC line. […] Single clones were separated using Fluorescent Activated Cell Sorting (FACS) based on CGRP induced β-lactamase activity. β-lactamase activity was measured using a fluorescence energy transfer (FRET) dye, CCF4. […]
Parameter IC50: see the listing below.

# MOLECULE, IC50
measured = [
    ("CCN1C(=O)C(CC(=O)N2CCC(N3Cc4ccccc4NC3=O)CC2)SC1c1ccccc1 (centres unmarked) [Compound 177]", "1000 to 5000 nM"),
    ("CN(c1ccccc1C1SC(CC(=O)N2CCC(n3c(=O)[nH]c4ncccc43)CC2)C(=O)N1CCC(C)(C)C)[C@@H]1CCN(Cc2ccccc2)C1 (some centres unmarked) [Compound 402]", "< 1000 nM"),
    ("O=C(CC1SC(c2ccccc2)N(Cc2ccncc2)C1=O)N1CCC(N2Cc3ccccc3NC2=O)CC1 (centres unmarked) [Compound 46]", "1000 to 5000 nM"),
    ("COC(=O)[C@H](CC1CCCCC1)N1C(=O)C(CC(=O)N2CCC(N3Cc4ccccc4NC3=O)CC2)SC1c1ccccc1 (some centres unmarked) [Compound 55]", "1000 to 5000 nM"),
    ("CC(C)CCN1C(=O)C(CC(=O)N2CCC3(CC2)CC(=O)c2ccccc2O3)SC1c1ccccc1N1CCN(C)CC1 (centres unmarked) [Compound 331]", "< 1000 nM"),
    ("CC(C)(C)CCN1C(=O)C(CC(=O)N2CCC(N3Cc4ccccc4NC3=O)CC2)SC1c1c[nH]cn1 (centres unmarked) [Compound 305]", "1000 to 5000 nM"),
    ("O=C(CC1SC(c2ccccc2)N(c2ccccc2)C1=O)N1CCC(N2Cc3ccccc3NC2=O)CC1 (centres unmarked) [Compound 187]", "1000 to 5000 nM"),
    ("CC(C)CCN1C(=O)C(CC(=O)N2CCC(N3Cc4ccccc4NC3=O)CC2)SC12C=CC(C)(C)CC2 (centres unmarked) [Compound 241]", "1000 to 5000 nM"),
    ("COc1ccccc1C1SC(CC(=O)N2CCC(N3Cc4ccccc4NC3=O)CC2)C(=O)N1CCC(C)C (centres unmarked) [Compound 80]", "< 1000 nM"),
    ("CC(C)(C)CCN1C(=O)[C@H](CC(=O)N2CCC(n3c(=O)[nH]c4ncccc43)CC2)S[C@@H]1c1cccc(F)c1C1CCNCC1 [Compound 554]", "< 1000 nM"),
    ("CCCOc1ccc(C2SC(CC(=O)N3CCC(N4Cc5ccccc5NC4=O)CC3)C(=O)N2CCC(C)C)cc1 (centres unmarked) [Compound 103]", "> 5000 nM"),
    ("Cc1cc(C2SC(CC(=O)N3CCC(n4cc(-c5ccccc5)[nH]c4=O)CC3)C(=O)N2CCC(C)C)cc2cn[nH]c12 (centres unmarked) [Compound 248]", "< 1000 nM"),
    ("CN1CCN(c2ccccc2C2SC(CC(=O)N3CCC(N4CCc5ccccc5NC4=O)CC3)C(=O)N2CC(C)(C)C)CC1 (centres unmarked) [Compound 410]", "< 1000 nM"),
    ("CC(C)N1CCN(c2c(F)cccc2[C@@H]2S[C@@H](CC(=O)N3CCC(N4CCc5ccccc5NC4=O)CC3)C(=O)N2CCC(C)(C)C)CC1 [Compound 395]", "> 5000 nM"),
    ("Cc1cc(C2SC(CC(=O)N3CCC(N4Cc5ccccc5NC4=O)CC3)C(=O)N2CCC(C)C)cc2cn[nH]c12 (centres unmarked) [Compound 282]", "< 1000 nM"),
    ("CC(C)(C)CCN1C(=O)C(CC(=O)N2CCC(N3Cc4ccccc4NC3=O)CC2)SC12CCc1ccccc12 (centres unmarked) [Compound 317]", "1000 to 5000 nM"),
    ("CC(C)CCN1C(=O)C(CC(=O)N2CCC(N3Cc4ccccc4NC3=O)CC2)SC12CCSCC2 (centres unmarked) [Compound 174]", "< 1000 nM"),
]
